- Test system: T lymphocytes (normal mouse spleen cells) stimulated with ConA
- METHOD DESCRIPTION: Mouse Spleen Cell ConA Blastogenesis Assay
- Assay type: cell-based, mouse (C57Bl/6)
- ASSAY CONDITIONS: Mus musculus, T-lymphocyte, ConA 4 ug/ml, 0.01 ug/ml; read-out: % Change from Control (Table II)

COMPOUND	inhibition at 0.01 µg/mL, %
CCCCCCCC(=O)OC[C@H]1O[C@@]2(OC)COC(C)(C)O[C@H]2[C@@H]1O	-28
CCCCC/C=C\COC[C@H]1O[C@@]2(OC)COC(C)(C)O[C@H]2[C@@H]1OC/C=C\CCCCC	4
CCCCCCCC(=O)OC[C@H]1O[C@@]2(OC)COC(C)(C)O[C@H]2[C@@H]1OC(=O)CCCCCCC	3
CCCCCCCC(=O)O[C@@H]1[C@@H](CO)O[C@@]2(OC)COC(C)(C)O[C@@H]12	-18
CCCCCCCOC[C@H]1O[C@](COCC)(OC)[C@@H](OCC)[C@@H]1O	25
CCCCCCCO[C@@H]1[C@@H](CO)O[C@@]2(OC)COC(C)(C)O[C@@H]12	8
Cc1cn([C@H]2C[C@H](N=[N+]=[N-])[C@@H](CO)O2)c(=O)[nH]c1=O [AZT, reference compound]	13
CCCCCC#CCOC[C@H]1O[C@@]2(OC)COC(C)(C)O[C@H]2[C@@H]1OCC#CCCCCC	16
CCCCC/C=C\COC[C@H]1O[C@](COC/C=C\CCCCC)(OC)[C@@H](O)[C@@H]1O	-7
CCCCC/C=C/COC[C@H]1O[C@@]2(OC)COC(C)(C)O[C@H]2[C@@H]1OC/C=C/CCCCC	8
